- assayed_target: HBV polymerase (Hepatitis B virus genotype A2 subtype adw2, UniProt P03159)
- Construct: made in house; host or cells: E. coli
- Sequence (P03159 whole entry): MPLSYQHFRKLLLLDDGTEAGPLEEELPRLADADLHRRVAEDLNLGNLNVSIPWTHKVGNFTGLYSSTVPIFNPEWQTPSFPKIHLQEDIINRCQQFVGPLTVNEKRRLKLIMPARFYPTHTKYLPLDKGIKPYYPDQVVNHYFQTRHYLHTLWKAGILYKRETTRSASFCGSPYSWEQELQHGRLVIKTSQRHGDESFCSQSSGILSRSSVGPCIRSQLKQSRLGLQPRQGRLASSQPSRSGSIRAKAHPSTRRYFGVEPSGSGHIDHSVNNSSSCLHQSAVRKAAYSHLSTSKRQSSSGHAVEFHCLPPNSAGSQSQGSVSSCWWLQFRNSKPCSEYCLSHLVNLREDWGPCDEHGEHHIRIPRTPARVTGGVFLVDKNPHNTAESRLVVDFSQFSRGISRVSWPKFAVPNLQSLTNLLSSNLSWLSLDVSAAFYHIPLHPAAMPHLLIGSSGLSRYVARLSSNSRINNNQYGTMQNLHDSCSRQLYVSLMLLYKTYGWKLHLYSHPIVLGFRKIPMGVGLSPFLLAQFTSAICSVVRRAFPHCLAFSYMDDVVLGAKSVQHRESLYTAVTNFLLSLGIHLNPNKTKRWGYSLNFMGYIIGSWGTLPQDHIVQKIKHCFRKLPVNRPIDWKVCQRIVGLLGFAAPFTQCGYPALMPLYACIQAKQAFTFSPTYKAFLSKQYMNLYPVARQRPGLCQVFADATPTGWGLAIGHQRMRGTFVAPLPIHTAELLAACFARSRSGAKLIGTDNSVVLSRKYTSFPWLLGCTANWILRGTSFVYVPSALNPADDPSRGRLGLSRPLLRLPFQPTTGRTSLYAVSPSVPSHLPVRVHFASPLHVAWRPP
- protocol: In vitro reverse transcription activity of HBV polymerase (ELISA-type, DIG/biotin nucleotides)
- Format: biochemical
- condition_details: 0.1 μg/ml test compound; read-out: Inhibition activity on HBV-RT (%)
Recorded inhibition at 0.1 µg/mL for the following molecules
experimental_endpoint: inhibition at 0.1 µg/mL (%)

- CSc1ncc(C(=O)NCCN(C)C)c(Nc2ccc3cn[nH]c3c2)n1: 66
- CSc1ncc(C(=O)NCCc2ccccn2)c(Nc2ccc3cn[nH]c3c2)n1: 70
- CSc1ncc(C(=O)NCCc2ccccn2)c(Nc2ccc3[nH]ncc3c2)n1: 60
- CSc1ncc(C(=O)NN2CCN(C)CC2)c(Nc2ccc3cn[nH]c3c2)n1: 46
- CSc1ncc(C(=O)NCCO)c(Nc2ccc3[nH]ncc3c2)n1: 76

Measured values drawn from patent US6762189B1 for this set.
